Here the recorded IC50 is given for each entry.
targetOrSystem: H1047R PIK3CA enzyme (Homo sapiens, UniProt P42336, H1047R)
Sequence (P42336 whole entry H1047R): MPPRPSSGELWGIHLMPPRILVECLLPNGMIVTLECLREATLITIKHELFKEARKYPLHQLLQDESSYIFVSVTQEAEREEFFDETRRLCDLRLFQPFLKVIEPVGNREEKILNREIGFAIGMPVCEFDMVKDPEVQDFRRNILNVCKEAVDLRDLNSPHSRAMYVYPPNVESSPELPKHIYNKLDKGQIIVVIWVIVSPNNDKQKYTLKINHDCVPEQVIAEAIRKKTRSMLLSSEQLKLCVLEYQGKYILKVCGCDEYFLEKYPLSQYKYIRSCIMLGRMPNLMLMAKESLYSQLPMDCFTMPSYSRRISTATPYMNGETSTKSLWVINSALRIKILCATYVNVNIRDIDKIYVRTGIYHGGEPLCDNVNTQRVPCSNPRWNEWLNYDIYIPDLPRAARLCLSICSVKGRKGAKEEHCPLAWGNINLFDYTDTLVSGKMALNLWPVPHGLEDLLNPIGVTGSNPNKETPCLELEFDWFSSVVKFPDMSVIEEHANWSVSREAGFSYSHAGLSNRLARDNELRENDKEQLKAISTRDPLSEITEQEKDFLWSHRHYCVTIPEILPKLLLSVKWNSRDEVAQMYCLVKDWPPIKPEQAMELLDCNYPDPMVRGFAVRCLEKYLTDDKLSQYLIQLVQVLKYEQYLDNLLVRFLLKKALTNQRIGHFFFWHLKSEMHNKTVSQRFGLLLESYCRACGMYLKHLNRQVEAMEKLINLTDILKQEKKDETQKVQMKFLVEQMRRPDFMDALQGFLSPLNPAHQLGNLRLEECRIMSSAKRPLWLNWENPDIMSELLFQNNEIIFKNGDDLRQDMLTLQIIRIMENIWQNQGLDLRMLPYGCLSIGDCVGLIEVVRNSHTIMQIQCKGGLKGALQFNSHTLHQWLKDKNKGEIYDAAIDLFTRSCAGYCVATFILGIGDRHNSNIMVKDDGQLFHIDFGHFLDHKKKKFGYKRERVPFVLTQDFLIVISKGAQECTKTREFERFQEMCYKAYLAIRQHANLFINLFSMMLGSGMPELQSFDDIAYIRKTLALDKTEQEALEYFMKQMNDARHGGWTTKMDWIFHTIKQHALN
Sequence (P27986 whole entry partner): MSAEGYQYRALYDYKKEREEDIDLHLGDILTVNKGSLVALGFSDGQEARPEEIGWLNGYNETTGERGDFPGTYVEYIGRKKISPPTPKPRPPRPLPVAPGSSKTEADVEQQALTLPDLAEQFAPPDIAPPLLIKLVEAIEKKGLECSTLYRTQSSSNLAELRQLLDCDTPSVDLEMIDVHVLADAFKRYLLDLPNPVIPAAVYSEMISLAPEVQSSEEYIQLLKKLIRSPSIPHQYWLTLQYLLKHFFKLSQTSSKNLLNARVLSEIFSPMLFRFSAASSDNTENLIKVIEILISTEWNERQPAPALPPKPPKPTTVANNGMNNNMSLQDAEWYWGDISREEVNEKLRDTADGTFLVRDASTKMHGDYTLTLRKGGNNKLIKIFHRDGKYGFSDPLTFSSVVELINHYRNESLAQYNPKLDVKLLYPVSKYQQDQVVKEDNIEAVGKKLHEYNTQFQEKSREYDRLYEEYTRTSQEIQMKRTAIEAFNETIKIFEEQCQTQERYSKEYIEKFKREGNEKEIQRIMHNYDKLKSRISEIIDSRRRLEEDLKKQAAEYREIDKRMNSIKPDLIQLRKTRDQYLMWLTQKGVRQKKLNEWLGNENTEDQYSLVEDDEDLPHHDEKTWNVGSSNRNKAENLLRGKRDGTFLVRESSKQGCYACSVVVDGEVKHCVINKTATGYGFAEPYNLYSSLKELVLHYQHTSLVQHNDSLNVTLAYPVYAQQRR
method: ADP-Glo Biochemical PIK3CA Kinase Assay
testConditions: ADP-Glo biochemical PIK3CA kinase assay

{"compound": "CNC(=O)c1cnc(Nc2ccccc2C)c(NC(=O)Cn2ccccc2=O)c1 [I-646]", "measurementLabel": "IC50", "endpointValue": "1 to 10 µM"}
{"compound": "CNC(=O)c1cnc(Nc2ccccc2C)c(NC(=O)c2csc3ccc(OC)cc23)c1 [I-409]", "measurementLabel": "IC50", "endpointValue": "1 to 10 µM"}
{"compound": "CNC(=O)c1cnc(Nc2ccccc2C)c(NC(=O)c2cc(F)c(F)c(C(F)(F)F)c2)c1 [I-677]", "measurementLabel": "IC50", "endpointValue": "1 to 10 µM"}
{"compound": "CNC(=O)c1cnc(Nc2ccccc2C)c(NC(=O)C2(c3cccc(Cl)c3)CC2)c1 [I-513]", "measurementLabel": "IC50", "endpointValue": "10 to 100 µM"}

Next up:
Provide measured IC50 value, entry: CNC(=O)c1cnc(Nc2ccccc2C)c(NC(=O)c2onc3ccccc23)c1 [I-644]
1 to 10 µM

* * *

targetOrSystem: H1047R PIK3CA enzyme (Homo sapiens, UniProt P42336, H1047R)
method: ADP-Glo Biochemical PIK3CA Kinase Assay
testConditions: ADP-Glo biochemical PIK3CA kinase assay
pIC50: −log10 of the molar value.
measurementLabel: pIC50

Past entries and their recorded results:
{"compound": "Cc1ccccc1Nc1ncc(C(=O)N[C@H]2C[C@@H](C(=O)N(C)C)C2)cc1NC(=O)c1csc2ccccc12", "pIC50": "5.00 to 6.00"}
{"compound": "CNC(=O)c1cnc(N)c(NC(=O)c2csc3ccccc23)c1", "pIC50": "6.00 to 6.30"}
{"compound": "COC[C@@H](C)NC(=O)c1cnc(Nc2ccccc2C)c(NC(=O)c2csc3ccccc23)c1", "pIC50": "5.00 to 6.00"}
{"compound": "CNC(=O)c1cnc(Nc2ccccc2C)c(NC(=O)c2nc(Cl)cc3ccccc23)c1", "pIC50": "5.00 to 6.00"}
{"compound": "CNC(=O)c1cnc(Nc2ccccc2C)c(NC(=O)c2cc(C)nc(C(F)(F)F)c2)c1", "pIC50": "6.30 to 7.00"}
{"compound": "CNC(=O)c1cnc(Nc2ccccc2C)c(NC(=O)c2cc(C)cc3cccnc23)c1", "pIC50": "5.00 to 6.00"}
{"compound": "Cc1ccccc1Nc1ncc(C(=O)N[C@H]2CCOC2)cc1NC(=O)c1csc2ccccc12", "pIC50": "6.30 to 7.00"}
{"compound": "CCn1nccc1Nc1ncc(C(=O)NC)cc1NC(=O)c1csc2ccccc12", "pIC50": "5.00 to 6.00"}
{"compound": "CNC(=O)c1cnc(Nc2ccccc2C)c(NC(=O)c2cc(Br)cc3c2cnn3C)c1", "pIC50": "6.30 to 7.00"}
{"compound": "Cc1ccccc1Nc1ncc(C(=O)N[C@@H]2CC[C@@H](O)C2)cc1NC(=O)c1csc2ccccc12", "pIC50": "6.30 to 7.00"}

For the compound Cc1ccccc1Nc1ncc(C(=O)N[C@H]2C[C@H](O)C2)cc1NC(=O)c1csc2ccccc12 , give its reported pIC50.
≥ 7.00

Look up and state reported pIC50 for CC(C)(O)c1cnc(Nc2cc(F)ccc2Cl)c(NC(=O)c2cc(F)cc(C(F)(F)F)c2)c1
5.00 to 6.00

Consider the compound CNC(=O)c1cnc(N2CCC[C@@H]3CCC[C@@H]32)c(NC(=O)c2csc3ccccc23)c1 (single isomer, unassigned) . State its measured pIC50.
5.00 to 6.00

Input Cc1ccccc1Nc1ncc(C(=O)NC(C)c2nnc3ccccn23)cc1NC(=O)c1csc2ccccc12 (centres unmarked) , output reported pIC50.
≥ 7.00

Give me measured pIC50, please, for this compound: CNC(=O)c1cnc(Nc2ccc3c(c2)COC3)c(NC(=O)c2csc3ccccc23)c1
5.00 to 6.00

Look up and state reported pIC50 for CNC(=O)c1cnc(Nc2ccccc2C)c(NC(=O)c2n[nH]c3ccc(C#N)cc23)c1
4.00 to 5.00

Give the reported value of pIC50 for this record: Cc1ccccc1Nc1ncc(C(=O)N[C@H]2CC[C@@H](O)C2)cc1NC(=O)c1csc2ccccc12
6.30 to 7.00

* * *

targetOrSystem: H1047R PIK3CA enzyme (Homo sapiens, UniProt P42336, H1047R)
method: ADP-Glo Biochemical PIK3CA Kinase Assay
testConditions: ADP-Glo biochemical PIK3CA kinase assay
Protocol: Compounds to be assayed were plated in 16 doses of 1:2 serial dilutions (20 nL volume each well) on a 1536-well plate, and the plate warmed to room temperature. PIK3CA enzyme (e.g. H1047R, E542K, E545K, or wild-type) (1 μL of 2 nM solution in Enzyme Assay Buffer (comprising 50 mM HEPES pH 7.4, 50 mM NaCl, 6 mM MgCl2, 5 mM DTT and 0.03% CHAPS)) was added and shaken for 10 seconds and preincubated for 30 minutes. […]
pIC50: −log10 of the molar value.
# reported pIC50; entries follow

{"testSmiles": "COC1CN(C(=O)c2cnc(Nc3ccccc3C)c(NC(=O)c3csc4ccccc34)c2)C1", "endpointValue": "5.00 to 6.00"}

# return pIC50 of Cc1ccccc1Nc1ncc(C(=O)NCc2nnc3ccccn23)cc1NC(=O)c1csc2ccccc12 (system: H1047R PIK3CA enzyme (Homo sapiens, UniProt P42336, H1047R))
≥ 7.00

Enter measured pIC50, system H1047R PIK3CA enzyme (Homo sapiens, UniProt P42336, H1047R), for the compound shown: CNC(=O)c1cnc(Nc2ccccc2C)c(NC(=O)c2n[nH]c3cccc(F)c23)c1
5.00 to 6.00

// fetch pIC50; item: CNC(=O)c1cnc(Nc2ccccc2C)c(NC(=O)c2cccc(OC)c2F)c1 ; system: H1047R PIK3CA enzyme (Homo sapiens, UniProt P42336, H1047R)
4.00 to 5.00

Report value only: pIC50, H1047R PIK3CA enzyme (Homo sapiens, UniProt P42336, H1047R), CNC(=O)c1cnc(Nc2ccccc2C)c(NC(=O)CCc2ccncc2C)c1
5.00 to 6.00

Under H1047R PIK3CA enzyme (Homo sapiens, UniProt P42336, H1047R), report pIC50 for Cc1cccc(-n2nc(C)cc2NC(=O)c2cc(F)cc(C(F)(F)F)c2)c1
4.00 to 5.00

* * *

targetOrSystem: H1047R PIK3CA enzyme (Homo sapiens, UniProt P42336, H1047R)
method: ADP-Glo Biochemical PIK3CA Kinase Assay
testConditions: ADP-Glo biochemical PIK3CA kinase assay
pIC50: −log10 of the molar value.
# pIC50 values compiled below

# example entries with known answers
{"molecule": "Cc1ccccc1Nc1ncc(C(=O)NCc2ccc(Cl)cc2)cc1NC(=O)c1cc(F)cc(C(F)(F)F)c1 [I-702]", "pIC50": "6.00 to 6.30"}
{"molecule": "Cc1ccccc1Nc1ncc(C(=O)N2CC(C)(F)C2)cc1NC(=O)c1csc2ccccc12 [I-536]", "pIC50": "5.00 to 6.00"}
{"molecule": "Cc1ccccc1Nc1ncc(C(=O)N[C@H]2CC[C@]3(CCC(=O)N3)CC2)cc1NC(=O)c1csc2ccccc12 [I-617]", "pIC50": "5.00 to 6.00"}
{"molecule": "Nc1c2c(nn1C(=O)c1cc(F)cc(C(F)(F)F)c1)CCCC2 [I-778]", "pIC50": "4.00 to 5.00"}
{"molecule": "CNC(=O)c1cnc(Nc2ccccc2C)c(NC(=O)c2nn(C)c3c2CCC3)c1 [I-472]", "pIC50": "4.00 to 5.00"}

Output pIC50 of Cc1ccccc1Nc1ncc(C(=O)NCC2(O)CCOC2)cc1NC(=O)c1csc2ccccc12 (stereo not shown) [I-583]
6.00 to 6.30

Dear colleague, please send me the reported pIC50 for CNC(=O)c1cnc(Nc2cccc3ccn(C)c23)c(NC(=O)c2csc3ccccc23)c1 [I-680] when you can.
5.00 to 6.00

Answer with the recorded pIC50 for the molecule listed here: Cc1ccccc1Nc1ncc(C(=O)NC2(C(N)=O)CC2)cc1NC(=O)c1csc2ccccc12 [I-612]
6.30 to 7.00

* * *

targetOrSystem: H1047R PIK3CA enzyme (Homo sapiens, UniProt P42336, H1047R)
method: ADP-Glo Biochemical PIK3CA Kinase Assay
testConditions: ADP-Glo biochemical PIK3CA kinase assay
measurementLabel: IC50

Some entries whose results are on file:
{"compound": "O=C(Nc1cnccc1-n1cccn1)c1cc(F)cc(C(F)(F)F)c1", "IC50": "1000 to 10000 nM"}
{"compound": "CNC(=S)c1cnc(Nc2ccccc2C)c(NC(=O)c2csc3ccccc23)c1", "IC50": "100 to 500 nM"}
{"compound": "Cc1ccccc1Nc1ncc(C(=O)NCC2CCN(C)C(=O)C2)cc1NC(=O)c1csc2ccccc12 (stereo not drawn)", "IC50": "100 to 500 nM"}

Using known records, supply IC50 for CNC(=O)c1cnc(Nc2ccccc2OC)c(NC(=O)c2csc3ccccc23)c1
1000 to 10000 nM

Output measured IC50 for this item: Cc1ccccc1Nc1ncc(C(=O)N[C@H]2C[C@H](C(=O)O)C2)cc1NC(=O)c1csc2ccccc12
500 to 1000 nM

Fill in IC50 for record Cc1ccccc1Nc1ncc(C(=O)N2CC(C)(O)C2)cc1NC(=O)c1csc2ccccc12
1000 to 10000 nM

Supply recorded IC50 for CNC(=O)c1cnc(Nc2ccccc2C)c(NC(=O)c2csc3cncnc23)c1 here.
1000 to 10000 nM

Check the records and state IC50 for Cc1ccccc1Nc1ncc(C(=O)NCC2(C#N)CC2)cc1NC(=O)c1cc(F)cc(C(F)(F)F)c1
100 to 500 nM

Return IC50 (reported value) for this compound: CNC(=O)c1cnc(Nc2cncc3ccccc23)c(NC(=O)c2csc3ccccc23)c1
1000 to 10000 nM

Report measured IC50; entry is CNC(=O)c1cnc(Nc2ccccc2C)c(NC(=O)c2cc3cc[nH]c3cc2F)c1
10000 to 100000 nM

Identify measured IC50 corresponding to CNC(=O)c1cnc(Nc2ccccc2C)c(NC(=O)c2ccc(Br)c3cccnc23)c1
10000 to 100000 nM

For the compound CNC(=O)c1cnc(Nc2ccccc2C)c(NC(=O)c2cc(C)c3ccccc3n2)c1 , report IC50.
10000 to 100000 nM

Identify measured IC50 associated with Cc1ccccc1Nc1ncc(C(=O)NC2(C)CC2)cc1NC(=O)c1csc2ccccc12
≤ 100 nM

Identify the reported IC50 for the following entry. Cc1ccccc1Nc1ncc(C(=O)Nc2ncn(C)n2)cc1NC(=O)c1csc2ccccc12
500 to 1000 nM

Return value of IC50 for input CC#CCC(C(=O)Nc1cc(C(=O)NC)cnc1Nc1ccccc1C)c1ccccc1 (stereo not drawn) , no commentary.
10000 to 100000 nM

Determine its reported IC50: CNC(=O)c1cnc(Nc2ccccc2C)c(NC(=O)c2ccn3ccnc3c2)c1
1000 to 10000 nM

Give IC50 for Cc1ccccc1Nc1ncc(C(=O)NCc2ncccn2)cc1NC(=O)c1csc2ccccc12
500 to 1000 nM

In one line, give reported IC50 of the entry CNC(=O)c1cnc(Nc2ccccc2C)c(NC(=O)c2ccc(F)c(C)c2Cl)c1 .
10000 to 100000 nM
